# tested on: GIP receptor (Homo sapiens, UniProt P48546)
# Sequence (P48546 22-466): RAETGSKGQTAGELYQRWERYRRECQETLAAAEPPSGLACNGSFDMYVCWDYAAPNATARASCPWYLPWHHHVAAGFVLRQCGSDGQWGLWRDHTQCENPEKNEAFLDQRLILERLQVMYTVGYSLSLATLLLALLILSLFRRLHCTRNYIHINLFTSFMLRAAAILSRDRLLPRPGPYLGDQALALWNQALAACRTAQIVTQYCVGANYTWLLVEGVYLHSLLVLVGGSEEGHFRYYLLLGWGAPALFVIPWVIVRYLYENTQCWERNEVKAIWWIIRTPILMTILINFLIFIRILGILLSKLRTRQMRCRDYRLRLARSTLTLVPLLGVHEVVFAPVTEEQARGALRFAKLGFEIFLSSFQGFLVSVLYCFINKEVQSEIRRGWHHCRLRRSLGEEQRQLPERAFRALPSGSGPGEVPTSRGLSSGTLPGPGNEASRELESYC
# experimental details: cAMP induction, firefly luciferase reporter assay in HEK293 cells co-transfected with GIP receptor
# Assay type: cell-based
# condition set: Table 3; relative to the activity of the native hormone
measure: GIPR relative activity (%)

I: Example 8 peptide: Tyr1, AIB2, Glu16/Lys20 lactam, Leu-Ala-Gly 27-29, GPSSGAPPPS 30-39, or a peptide lacking a lactam [mt-228]
II: Example 8 peptide: Tyr1, AIB2, Glu16/Lys20 lactam, Leu-Ala-Gly 27-29, GPSSGAPPPS 30-39, or a peptide lacking a lactam [mt-220]
III: Example 8 peptide: Tyr1, AIB2, Glu16/Lys20 lactam, Leu-Ala-Gly 27-29, GPSSGAPPPS 30-39, or a peptide lacking a lactam [mt-226]
IV: Example 8 peptide: Tyr1, AIB2, Glu16/Lys20 lactam, Leu-Ala-Gly 27-29, GPSSGAPPPS 30-39, or a peptide lacking a lactam [mt-218]
QUERY: Going from lowest to highest recorded GIPR relative activity, rank the entries listed above. Labels, ranked as asked.
RESULT: IV, II, I, III

Sourced from patent US9587005B2
